# tested system: Hb (Drosophila melanogaster, UniProt P05084 225-364)
# Sequence: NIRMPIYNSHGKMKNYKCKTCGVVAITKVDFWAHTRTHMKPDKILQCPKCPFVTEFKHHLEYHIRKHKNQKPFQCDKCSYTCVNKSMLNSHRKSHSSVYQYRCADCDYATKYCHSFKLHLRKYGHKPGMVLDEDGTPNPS
# experimental details: FP; 33 mM phosphate pH 7.0, 90 mM NaCl, 0.01% Tween 20, 0.1 mM DTT, 0.5% agarose; room temperature
# measurement setup: tags: N-GST (pGEX-6P-1, kept); dsDNA, one strand shown
pKd: −log10 of the molar value.
reported endpoint: pKd

Entry AGTTTTTTAGGC ; pKd = ~7.90
